Some molecules, each annotated with its measured pKi.
# ASSAY_EXPLANATION: Displacement of [3H]SCH 23390 from dopamine D1-like receptor in Sprague-Dawley rat caudate putamen after 90 mins
# Format: tissue-based
Scale note: pKi = -log10(concentration in M).

{"columns": ["MOLECULE", "EXPERIMENTAL_VALUE"],
 "data": [
  ["CCCN(CC[C@]1(O)C[C@@H](NC(=O)c2ccc3ccccc3c2)C1)C1CC1c1ccc(Cl)cc1 (mixture of isomers)", 5.66],
  ["CCCN(CC[C@]1(O)C[C@@H](NC(=O)c2ccc3ccccc3c2)C1)[C@H]1C[C@@H]1c1ccccc1", 5.51],
  ["CCCN(CC[C@]1(O)C[C@@H](NC(=O)c2ccc3ccccc3c2)C1)[C@H]1C[C@@H]1c1cccc(Cl)c1 (racemic)", 5.74]
]}

Q: Return pKi for the following molecule: "CCCN(CC[C@]1(O)C[C@@H](NC(=O)c2ccc3ccccc3c2)C1)[C@@H]1C[C@H]1c1ccccc1"
Ans: 5.55
